From: patent US9884832B2

- test_target: AM2 S31 (wild-type serine at position 31 in the M2 protein), influenza virus A/Udorn/72 (Influenza A virus)
- Sequence (P0DOF5 whole entry, looked up): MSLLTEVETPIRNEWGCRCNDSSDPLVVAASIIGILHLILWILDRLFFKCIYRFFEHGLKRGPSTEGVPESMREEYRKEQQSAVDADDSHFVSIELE
- method_description: cell-based
- run_conditions: Table 3; 100 uM; Xenopus oocytes, pH 5.5, -20 mV; read-out: S31 OOcyte Inhibition at 100 uM (%)

{"compound": "C[Si](C)(C)c1ccc(CNC23CC4CC(CC(C4)C2)C3)s1 [Example 75b]", "inhibition at 100 µM": "0 to 30%"}
{"compound": "Oc1cc(I)ccc1CNC12CC3CC(CC(C3)C1)C2", "inhibition at 100 µM": "31 to 95%"}
{"compound": "CC(C)c1cc(CNC23CC4CC(CC(C4)C2)C3)no1 [Example 27b]", "inhibition at 100 µM": "0 to 30%"}
{"compound": "Oc1cc(-c2ccco2)ccc1CNC12CC3CC(CC(C3)C1)C2", "inhibition at 100 µM": "0 to 30%"}
{"compound": "COc1ccc(Cc2nc(CNC34CC5CC(CC(C5)C3)C4)no2)cc1OC [Example 28b]", "inhibition at 100 µM": "0 to 30%"}
{"compound": "c1cnc2[nH]c(CNC34CC5CC(CC(C5)C3)C4)nc2c1 [Example 82b]", "inhibition at 100 µM": "0 to 30%"}
{"compound": "Cc1noc(C)c1-c1nc(CNC23CC4CC(CC(C4)C2)C3)no1 [Example 25b]", "inhibition at 100 µM": "0 to 30%"}
{"compound": "COc1ccsc1-c1cc(CNC23CC4CC(CC(C4)C2)C3)no1 [Example 44b]", "inhibition at 100 µM": "0 to 30%"}
{"compound": "Fc1cccc(F)c1-c1cc(CNC23CC4CC(CC(C4)C2)C3)no1 [Example 38b]", "inhibition at 100 µM": "0 to 30%"}
{"compound": "CC(C)Cc1nc(CNC23CC4CC(CC(C4)C2)C3)no1 [Example 22b]", "inhibition at 100 µM": "0 to 30%"}
{"compound": "c1c(CNC23CC4CC(CC(C4)C2)C3)noc1C1CCCCC1 [Example 32b]", "inhibition at 100 µM": "0 to 30%"}
{"compound": "c1csc(-c2nc(CNC34CC5CC(CC(C5)C3)C4)cs2)c1 [Example 11b]", "inhibition at 100 µM": "0 to 30%"}
{"compound": "Oc1cc(Cl)ccc1CNC12CC3CC(CC(C3)C1)C2", "inhibition at 100 µM": "31 to 95%"}
{"compound": "CSC(C)(C)Cc1cc(CNC23CC4CC(CC(C4)C2)C3)no1 [Example 46b]", "inhibition at 100 µM": "0 to 30%"}
{"compound": "CC(C)(C)c1ccc(-c2ccc(CNC34CC5CC(CC(C5)C3)C4)s2)cc1 [Example 50b]", "inhibition at 100 µM": "0 to 30%"}
{"compound": "Nc1ncc(CNC23CC4CC(CC(C4)C2)C3)s1 [Example 19b]", "inhibition at 100 µM": "0 to 30%"}
{"compound": "Cc1nnc(CNC23CC4CC(CC(C4)C2)C3)o1 [Example 17b]", "inhibition at 100 µM": "0 to 30%"}
{"compound": "c1nc(CNC23CC4CC(CC(C4)C2)C3)sc1C1CC1 [Example 65b]", "inhibition at 100 µM": "0 to 30%"}
{"compound": "Clc1ncc(CNC23CC4CC(CC(C4)C2)C3)s1 [Example 13b]", "inhibition at 100 µM": "31 to 95%"}
{"compound": "CSc1ccccc1-c1ccc(CNC23CC4CC(CC(C4)C2)C3)cc1 [Example 66b]", "inhibition at 100 µM": "0 to 30%"}
{"compound": "COCc1nc(CNC23CC4CC(CC(C4)C2)C3)no1 [Example 23b]", "inhibition at 100 µM": "0 to 30%"}
{"compound": "FC(F)(F)c1nnc(CNC23CC4CC(CC(C4)C2)C3)o1 [Example 14b]", "inhibition at 100 µM": "0 to 30%"}
{"compound": "c1cc2[nH]c(CNC34CC5CC(CC(C5)C3)C4)cc2o1 [Example 78b]", "inhibition at 100 µM": "31 to 95%"}
{"compound": "COc1ccc(-c2nc(CNC34CC5CC(CC(C5)C3)C4)no2)c(OC)c1 [Example 34b]", "inhibition at 100 µM": "0 to 30%"}
{"compound": "CC(NC12CC3CC(CC(C3)C1)C2)c1ccc(C(C)(C)C)cc1 (stereo not drawn)", "inhibition at 100 µM": "0 to 30%"}
{"compound": "c1nc(N2CCOCC2)ncc1CNC12CC3CC(CC(C3)C1)C2 [Example 57b]", "inhibition at 100 µM": "0 to 30%"}
{"compound": "COc1ncc(CNC23CC4CC(CC(C4)C2)C3)c(OC)n1 [Example 64b]", "inhibition at 100 µM": "0 to 30%"}
{"compound": "Cc1ncc(CNC23CC4CC(CC(C4)C2)C3)s1 [Example 16b]", "inhibition at 100 µM": "0 to 30%"}
{"compound": "Clc1ccc(CNC23CC4CC(CC(C4)C2)C3)nn1 [Example 70b]", "inhibition at 100 µM": "31 to 95%"}
{"compound": "Cc1cccc(-c2ncc(CNC34CC5CC(CC(C5)C3)C4)cn2)c1 [Example 63b]", "inhibition at 100 µM": "0 to 30%"}
{"compound": "COc1ncc(CNC23CC4CC(CC(C4)C2)C3)cn1 [Example 55b]", "inhibition at 100 µM": "0 to 30%"}
{"compound": "Clc1nc(CNC23CC4CC(CC(C4)C2)C3)ns1 [Example 10b]", "inhibition at 100 µM": "31 to 95%"}
{"compound": "Cc1nc(CNC23CC4CC(CC(C4)C2)C3)cs1 [Example 12b]", "inhibition at 100 µM": "31 to 95%"}
{"compound": "c1csc(-c2ccc(CNC34CC5CC(CC(C5)C3)C4)nn2)c1 [Example 71b]", "inhibition at 100 µM": "0 to 30%"}
{"compound": "COc1cccc(-c2cc(CNC34CC5CC(CC(C5)C3)C4)no2)c1 [Example 39b]", "inhibition at 100 µM": "0 to 30%"}
{"compound": "OC12CC3CC(C1)CC(NCc1noc(-c4ccccc4)n1)(C3)C2 [Example 84b]", "inhibition at 100 µM": "0 to 30%"}
{"compound": "CC(C)(C)c1ncc(CNC23CC4CC(CC(C4)C2)C3)s1 [Example 20b]", "inhibition at 100 µM": "0 to 30%"}
{"compound": "CSc1ccccc1-c1cnc(CNC23CC4CC(CC(C4)C2)C3)s1 [Example 76b]", "inhibition at 100 µM": "0 to 30%"}
{"compound": "OC12CC3CC(C1)CC(NCc1noc(C4CCCCC4)n1)(C3)C2 [Example 86b]", "inhibition at 100 µM": "0 to 30%"}
